Measured target: Melanocyte-stimulating hormone receptor (Homo sapiens)
Sequence (Q01726 whole entry): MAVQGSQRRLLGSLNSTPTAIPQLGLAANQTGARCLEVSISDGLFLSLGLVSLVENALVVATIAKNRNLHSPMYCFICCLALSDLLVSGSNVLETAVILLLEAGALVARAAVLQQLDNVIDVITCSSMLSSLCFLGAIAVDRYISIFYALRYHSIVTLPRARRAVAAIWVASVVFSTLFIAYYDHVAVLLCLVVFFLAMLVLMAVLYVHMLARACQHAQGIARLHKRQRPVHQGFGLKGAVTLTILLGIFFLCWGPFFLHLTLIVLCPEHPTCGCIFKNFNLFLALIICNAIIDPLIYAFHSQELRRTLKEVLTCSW
Assay comment: Agonist activity at human MC1R transfected in HEK293 cells
pEC50: −log10 of the molar value.
Decision: pEC50 >= 6 yields YES, all other cases yield NO.

Solved cases (4 shown):
Task: Confirm if pEC50 reported for the molecule N=C(N)NCCC[C@@H]1C[C@@H](OCc2ccc3ccccc3c2)CN1C(=O)[C@@H](Cc1ccccc1)NC(=O)[C@@H]1CCCCN1 is 6 or above.
Result: YES

Task: Confirm if pEC50 reported for the molecule CC(=O)N[C@@H](Cc1ccc(O)cc1)C(=O)N[C@H](Cc1ccccc1)C(=O)N1C[C@H](OCc2ccc3ccccc3c2)C[C@@H]1CCCN=C(N)N is 6 or above.
Result: YES

Task: Confirm if pEC50 reported for the molecule CNC(=O)[C@H](Cc1ccc2ccccc2c1)NC(=O)[C@H](CCCN=C(N)N)NC(=O)[C@H](N)Cc1ccccc1 is 6 or above.
Result: NO

Task: Confirm if pEC50 reported for the molecule CC(=O)N[C@@H](Cc1c[nH]cn1)C(=O)N[C@H](Cc1ccccc1)C(=O)N1C[C@H](OCc2ccc3ccccc3c2)C[C@H]1CCCN=C(N)N is 6 or above.
Result: YES

Moving on to another molecule below.
Task: Confirm if pEC50 reported for the molecule CC(=O)N[C@@H](Cc1ccc(O)cc1)C(=O)N[C@H](Cc1ccccc1)C(=O)N1C[C@H](OCc2ccc3ccccc3c2)C[C@H]1CCCN=C(N)N is 6 or above.
Result: NO

* * *

Reported EC50 values for a set of molecules
Measured target: Melanocortin receptor 4 (Homo sapiens)
Sequence (P32245 whole entry): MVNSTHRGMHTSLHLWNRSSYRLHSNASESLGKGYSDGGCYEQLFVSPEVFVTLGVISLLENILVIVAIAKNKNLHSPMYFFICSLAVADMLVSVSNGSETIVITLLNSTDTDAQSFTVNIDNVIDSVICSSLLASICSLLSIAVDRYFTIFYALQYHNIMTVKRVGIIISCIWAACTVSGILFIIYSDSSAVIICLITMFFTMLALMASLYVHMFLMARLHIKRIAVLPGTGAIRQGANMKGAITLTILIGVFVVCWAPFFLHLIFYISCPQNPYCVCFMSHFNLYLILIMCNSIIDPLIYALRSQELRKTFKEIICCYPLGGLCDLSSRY
Assay comment: Agonist activity at human MC4R transfected in HEK293 cells
Quick note: number first, unit second.

# count of solved cases: 5
Task: If you can, please state the reported EC50 value of N=C(N)NCCC[C@@H]1C[C@H](OCc2ccc3ccccc3c2)CN1C(=O)[C@@H](Cc1ccccc1)NC(=O)[C@@H]1Cc2ccccc2CN1 .
Result: 457 nM

Task: If you can, please state the reported EC50 value of NC(N)=NCCC[C@H]1C[C@@H](OCc2ccc3ccccc3c2)CN1C(=O)[C@@H](Cc1ccccc1)NC(=O)[C@@H]1CCCCN1 .
Result: 14 nM

Task: If you can, please state the reported EC50 value of N=C(N)NCCC[C@H]1C[C@@H](OCc2ccc3ccccc3c2)CN1C(=O)[C@@H](Cc1ccccc1)NC(=O)[C@@H]1Cc2ccccc2CN1 .
Result: 10 nM

Task: If you can, please state the reported EC50 value of N=C(N)NCCNC(=O)[C@H]1C[C@@H](OCc2ccc3ccccc3c2)CN1C(=O)[C@@H](Cc1ccccc1)NC(=O)[C@@H]1Cc2ccccc2CN1 .
Result: 97 nM

Task: If you can, please state the reported EC50 value of N=C(N)NCCC[C@H]1C[C@H](OCc2ccc3ccccc3c2)CN1C(=O)[C@@H](Cc1ccccc1)NC(=O)[C@@H]1Cc2ccccc2CN1 .
Result: 36 nM

Field: next molecule
Task: If you can, please state the reported EC50 value of CC(=O)N[C@@H](CCC(N)=O)C(=O)N[C@H](Cc1ccccc1)C(=O)N1C[C@H](OCc2ccc3ccccc3c2)C[C@@H]1C(=O)NCCN=C(N)N .
Result: 184 nM

* * *

Data export: log10 of Ki values recorded with Melanocortin receptor 4 (Homo sapiens).
Transform log10 | Measure Ki | Unit nM

# count of solved cases: 5
Task: I'm curious: which log10 of Ki was measured for CC(=O)N[C@@H](Cc1c[nH]cn1)C(=O)N[C@H](Cc1ccccc1)C(=O)N1C[C@H](OCc2ccc3ccccc3c2)C[C@H]1CCCN=C(N)N tested on Melanocortin receptor 4 (Homo sapiens)?
Result: 3.46

Task: I'm curious: which log10 of Ki was measured for CC(=O)N[C@H](Cc1ccccc1)C(=O)N1C[C@H](OCc2ccc3ccccc3c2)C[C@@H]1CCCN=C(N)N tested on Melanocortin receptor 4 (Homo sapiens)?
Result: 1.95

Task: I'm curious: which log10 of Ki was measured for CC(=O)N[C@@H](Cc1ccccc1)C(=O)N[C@H](Cc1ccccc1)C(=O)N1C[C@H](OCc2ccc3ccccc3c2)C[C@@H]1CCCN=C(N)N tested on Melanocortin receptor 4 (Homo sapiens)?
Result: 1.77

Task: I'm curious: which log10 of Ki was measured for NC(=O)C[C@H](N)C(=O)N[C@H](Cc1ccccc1)C(=O)N1C[C@@H](OCc2ccc3ccccc3c2)C[C@@H]1CCCN=C(N)N tested on Melanocortin receptor 4 (Homo sapiens)?
Result: 2.27

Task: I'm curious: which log10 of Ki was measured for NC(=O)C[C@H](N)C(=O)N[C@H](Cc1ccccc1)C(=O)N1C[C@@H](OCc2ccc3ccccc3c2)C[C@H]1CCCN=C(N)N tested on Melanocortin receptor 4 (Homo sapiens)?
Result: 3.91

Next:
Task: I'm curious: which log10 of Ki was measured for CC(=O)N[C@@H](Cc1c[nH]cn1)C(=O)N[C@H](Cc1ccccc1)C(=O)N1C[C@@H](OCc2ccc3ccccc3c2)C[C@H]1CCCN=C(N)N tested on Melanocortin receptor 4 (Homo sapiens)?
Result: 1.15

Task: I'm curious: which log10 of Ki was measured for CC(=O)N[C@@H](Cc1c[nH]cn1)C(=O)N[C@H](Cc1ccccc1)C(=O)N1C[C@@H](OCc2ccc3ccccc3c2)C[C@@H]1CCCN=C(N)N tested on Melanocortin receptor 4 (Homo sapiens)?
Result: 1.76

* * *

Measured target: Melanocortin receptor 3 (Homo sapiens)
Sequence (P41968 whole entry): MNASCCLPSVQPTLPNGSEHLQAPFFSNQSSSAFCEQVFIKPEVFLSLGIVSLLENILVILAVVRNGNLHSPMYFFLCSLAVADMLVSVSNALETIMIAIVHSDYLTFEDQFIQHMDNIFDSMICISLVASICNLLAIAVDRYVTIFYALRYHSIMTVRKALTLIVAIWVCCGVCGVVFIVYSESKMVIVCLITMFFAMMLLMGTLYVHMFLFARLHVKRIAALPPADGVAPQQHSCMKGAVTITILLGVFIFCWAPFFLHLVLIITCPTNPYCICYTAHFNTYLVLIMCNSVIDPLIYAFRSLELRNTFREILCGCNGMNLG
Assay comment: Agonist activity at human MC3R transfected in HEK293 cells
Reported pEC50 values for a set of molecules
Reminder that pEC50 is minus the log10 of a molar concentration.

Task: If you can, please state the reported pEC50 value of CC(=O)N[C@@H](Cc1c[nH]cn1)C(=O)N[C@H](Cc1ccccc1)C(=O)N1C[C@@H](OCc2ccc3ccccc3c2)C[C@@H]1CCCN=C(N)N .
Result: 8.89

Task: If you can, please state the reported pEC50 value of CC(=O)N[C@@H](Cc1c[nH]cn1)C(=O)N[C@@H](Cc1ccccc1)C(=O)N[C@@H](CCCN=C(N)N)C(=O)N[C@@H](Cc1c[nH]c2ccccc12)C(N)=O .
Result: 6.61

Next:
Task: If you can, please state the reported pEC50 value of CC(=O)N[C@@H](Cc1ccc(O)cc1)C(=O)N[C@H](Cc1ccccc1)C(=O)N1C[C@@H](OCc2ccc3ccccc3c2)C[C@H]1CCCN=C(N)N .
Result: 5.93

Task: If you can, please state the reported pEC50 value of CC(=O)N[C@@H](Cc1ccc(O)cc1)C(=O)N[C@H](Cc1ccccc1)C(=O)N1C[C@@H](OCc2ccc3ccccc3c2)C[C@@H]1CCCN=C(N)N .
Result: 7.17

Task: If you can, please state the reported pEC50 value of NC(=O)C[C@H](N)C(=O)N[C@H](Cc1ccccc1)C(=O)N1C[C@@H](OCc2ccc3ccccc3c2)C[C@@H]1CCCN=C(N)N .
Result: 8.00

Task: If you can, please state the reported pEC50 value of CC(=O)N[C@@H](Cc1c[nH]cn1)C(=O)N[C@H](Cc1ccccc1)C(=O)N1C[C@@H](OCc2ccc3ccccc3c2)C[C@H]1CCCN=C(N)N .
Result: 5.95

* * *

Measured target: UniProtKB P41968
Measured metric: Ki (µM)
Expressed in µM, but write only the number.

# count of solved cases: 4
Task: I'm curious: which Ki was measured for NC(N)=NCCC[C@H]1C[C@@H](OCc2ccc3ccccc3c2)CN1C(=O)[C@@H](Cc1ccccc1)NC(=O)[C@@H]1CCCCN1 tested on UniProtKB P41968?
Result: 0.156

Task: I'm curious: which Ki was measured for NC(=O)C[C@H](N)C(=O)N[C@H](Cc1ccccc1)C(=O)N1C[C@H](OCc2ccc3ccccc3c2)C[C@H]1CCCN=C(N)N tested on UniProtKB P41968?
Result: 15.4

Task: I'm curious: which Ki was measured for CC(=O)N[C@@H](Cc1ccc(O)cc1)C(=O)N[C@H](Cc1ccccc1)C(=O)N1C[C@@H](OCc2ccc3ccccc3c2)C[C@@H]1CCCN=C(N)N tested on UniProtKB P41968?
Result: 0.425

Task: I'm curious: which Ki was measured for CC(=O)N[C@@H](Cc1c[nH]cn1)C(=O)N[C@@H](Cc1ccccc1)C(=O)N[C@@H](CCCN=C(N)N)C(=O)N[C@@H](Cc1c[nH]c2ccccc12)C(N)=O tested on UniProtKB P41968?
Result: 2.86

Next:
Task: I'm curious: which Ki was measured for N=C(N)NCCC[C@@H]1C[C@H](OCc2ccc3ccccc3c2)CN1C(=O)[C@@H](Cc1ccccc1)NC(=O)[C@@H]1Cc2ccccc2CN1 tested on UniProtKB P41968?
Result: 4.18

Task: I'm curious: which Ki was measured for N=C(N)NCCNC(=O)[C@H]1C[C@@H](OCc2ccc3ccccc3c2)CN1C(=O)[C@@H](Cc1ccccc1)NC(=O)[C@@H]1CCCCN1 tested on UniProtKB P41968?
Result: 3.85

Task: I'm curious: which Ki was measured for NC(=O)C[C@H](N)C(=O)N[C@H](Cc1ccccc1)C(=O)N1C[C@@H](OCc2ccc3ccccc3c2)C[C@@H]1CCCN=C(N)N tested on UniProtKB P41968?
Result: 0.835

Task: I'm curious: which Ki was measured for CC(=O)N[C@@H](Cc1ccc(O)cc1)C(=O)N[C@H](Cc1ccccc1)C(=O)N1C[C@H](OCc2ccc3ccccc3c2)C[C@@H]1C(=O)NCCN=C(N)N tested on UniProtKB P41968?
Result: 0.501
